tested on: primary rat mixed cortical cells; test: In vitro myelination assay (MBP positive myelin strands, fold myelin pixels above background); assay type: cell-based; settings: Rattus norvegicus, 10.0 μM compound, relative to baseline of no added compound; read-out: Fold myelin pixels above background, 10.0 μM
Let's look at some compounds and their measured fold induction at 10 µM.

Answered cases to consult:
Cc1cc(N2CCN(C3COC3)CC2)cc(Nc2ncn(-c3ccccc3)n2)c1C = 100 to 1000
Cc1cc(Nc2ncn(-c3ccccc3)n2)cc(N2CCCC(C#N)C2)c1 (centres unmarked) = 100 to 1000
Cc1cc(Nc2ncn(-c3ccnc(F)c3)n2)cc(N2CCN(C3COC3)CC2)c1 = 10 to 100
Cc1cc(Nc2ncn(-c3cc(F)cc(F)c3)n2)cc(N2CCNC(C)C2)c1 (centres unmarked) = ≤ 1

Query: What does the record list as fold induction at 10 µM for CC(=O)N1CCCC(c2cc(C)cc(Nc3ncn(-c4ccccc4)n3)c2)C1 (centres unmarked) ?
Result: ≤ 1

Query: What about Cc1cc(Nc2ncn(-c3ccc(F)c(F)c3)n2)cc(O[C@H]2CCN(C3COC3)C2)c1 ?
Result: ≤ 1

Query: Try CS(=O)(=O)c1cc(Nc2ncn(-c3cc(F)cc(F)c3)n2)cc(N2CCN(C3COC3)CC2)c1 next.
Result: 10 to 100

Query: Same lookup for CCc1cc(Nc2ncn(-c3cc(C)ccc3F)n2)cc(N2CCN(C3COC3)CC2)c1 , please.
Result: 10 to 100

====

Tested on: primary rat mixed cortical cells
Test: In vitro myelination assay (MBP positive myelin strands, fold myelin pixels above background)
Type: cell-based
Details: Rattus norvegicus, 10.0 μM compound; read-out: Fold myelin pixels above background relative to baseline of no added compound
From the text: In Vitro Myelination Assay Compounds were screened for their ability to induce myelination using a primary rat mixed cortical cell culture assay, which contains neurons, oligodendrocyte precursor cells, oligodendrocytes, astrocytes and microglia. […] The myelin strands were quantitated using a custom created myelin detection software program. […]
The entries below come with measured fold induction at 10 µM values attached.

Cc1cc(Nc2ncn(-c3cc(F)cc(F)c3)n2)cc(N2CCOC(CN3CCCC3)C2)c1 (centres unmarked) [Compound 1027] = ≤ 1
Cc1cc(Nc2ncn(-c3cc(F)cc(F)c3)n2)cc(N2CCN(CC3COCCO3)CC2)c1 (centres unmarked) [Compound 949] = 10 to 100
Cc1cc(Nc2ncn(-c3cc(F)cc(F)c3)n2)cc(N2CCN(CCO)C(C)C2)c1 (centres unmarked) [Compound 902] = ≤ 1
Cc1cc(Nc2ncn(-c3cc(F)cc(F)c3)n2)cc(N2CCN(C3CCCC3)C(=O)C2)c1 [Compound 905] = 10 to 100

Query: If you can, please state the reported fold induction at 10 µM value of Cc1cc(Nc2ncn(-c3cccnc3)n2)cc(N2CC3(C2)CN(C(C)C)C3)c1 [Compound 966] .
Result: ≤ 1

Query: Note, next up: Cc1cc(Nc2ncn(-c3ccccc3)n2)cc(Nc2ncc(C)o2)c1 [Compound 1049]
Result: 10 to 100

Query: Okay, and [2H]C1([2H])N(C(=O)C2CC2)C([2H])([2H])C([2H])([2H])N(c2cc(Nc3ncn(-c4cc(F)cc(F)c4)n3)cc(C(F)(F)F)c2)C1([2H])[2H] [Compound 883] ?
Result: 1 to 10

Query: # iterate: Cc1cc(NCCN2CCOC(C)C2)cc(Nc2ncn(-c3cc(F)cc(F)c3)n2)c1 (centres unmarked) [Compound 928]
Result: ≤ 1

src = patent US10766869B2
